Reference source for all entries: patent US20250282753A1

# Method Description: Pharmacokinetics of the compounds in SD rats (Example 36)
# Type: in vivo
# Experimental Setup: po; Gavage administration - 10 mg/kg; SD rat plasma
# Method: Preparation of compound stock solution: An appropriate amount of compound solid powder was be weighed and added in a certain amount of DMSO, and vortex ultrasound to obtain a 10 mg/mL stock solution. […] Non-compartmental model-related parameters were calculated by WinNonlin® Professional software.
Counter-ions that a name gives are not always drawn.
Measured Quantity: AUC(0-inf) (ng·h/mL)

# annotated cases, reported AUC(0-inf) shown
COC(=O)c1cnn(-c2ccc3c(c2)c(C#N)nn3C(C)C)c1 [Compound 5] : 25100
CC(C)OC(=O)c1cnn(-c2ccc3c(c2)c(C#N)nn3C(C)C)c1 [Compound 7] : 12900
COCCOC(=O)c1ccnc(-c2ccc3c(c2)c(C#N)nn3C(C)C)c1 [Compound 31, hydrobromide] : 20900

a: COC(=O)c1ccnc(-c2ccc3c(c2)c(C#N)nn3C(C)C)c1 [Compound 19]
b: CC(=O)OCCOC(=O)c1ccnc(-c2ccc3c(c2)c(C#N)nn3C(C)C)c1 [Compound 28]
c: CC(C)n1nc(C#N)c2cc(-c3cc(C(=O)Oc4cccc(CO[N+](=O)[O-])c4)ccn3)ccc21 [Compound 42]
Ranking field: AUC(0-inf); order: falling. Write the labels out in the order the request specifies.
a, b, c
